- System: HEK-293T
- METHOD SUMMARY: Multiplex assay against HEK293T
- Assay type: toxicity, cell-based
- CONDITION DESCRIPTION: human, 12 h, 10 µM, compound concentration 10 uM, replicate 1
Could you mark each record yes (1) if its Population Normal (%) falls strictly under 90%, and no (0) if it equals or exceeds it?

{"MOLECULE": "OCCCNc1cc(-c2ccnc(Nc3cccc(Cl)c3)n2)ccn1", "ANSWER LABEL": "yes (1)"}
{"MOLECULE": "O=C(Nc1cc(-c2ccccc2)nn1-c1ccccc1F)c1ccc([N+](=O)[O-])cc1", "ANSWER LABEL": "no (0)"}
{"MOLECULE": "CCCCCCNC(=O)Nc1ccc(S(=O)(=O)Nc2ccc(CCNC[C@H](O)COc3ccc(O)cc3)cc2)cc1 [L-755507]", "ANSWER LABEL": "yes (1)"}
{"MOLECULE": "C[C@@H]1CC(=O)Nc2cccc(-c3ccc4c(c3)c(-c3cnn(C)c3)nn4C)c2N1", "ANSWER LABEL": "no (0)"}
{"MOLECULE": "Cc1cc(O)c(-c2ccc([C@@H](C)CN(C)C)cc2)c2c1[nH]c(=O)c1sccc12", "ANSWER LABEL": "yes (1)"}
{"MOLECULE": "O=c1ccc2ccc(OCCCCN3CCN(c4cccc5sccc45)CC3)cc2[nH]1 [BREXPIPRAZOLE]", "ANSWER LABEL": "yes (1)"}
{"MOLECULE": "CCCCC[C@H](O)/C=C/[C@H]1[C@H](O)CC(=O)[C@@H]1CCCCCCC(=O)O [ALPROSTADIL]", "ANSWER LABEL": "no (0)"}
{"MOLECULE": "O=C(O)CCC/C=C\\CC1C(O)CC(O)C1/C=C/C(O)COc1cccc(Cl)c1 (configuration not stated) [CLOPROSTENOL]", "ANSWER LABEL": "no (0)"}
{"MOLECULE": "Cn1cc(C(=O)OCC2CCN(CCNS(C)(=O)=O)CC2)c2ccccc21", "ANSWER LABEL": "no (0)"}
{"MOLECULE": "COc1cc(C(=O)N2CC[C@@H](O)[C@@H](N)C2)cc2nc(-c3cc4ccccc4n3CC3CC3)n(C)c12.Cl", "ANSWER LABEL": "yes (1)"}
{"MOLECULE": "S=C(NCCCc1c[nH]cn1)NCCCN(Cc1ccc(Cl)c(Cl)c1)c1ccc(Br)cn1", "ANSWER LABEL": "yes (1)"}

* * *

- Tested on: HEK-293T
- METHOD SUMMARY: Multiplex assay against HEK293T
- Format: toxicity, cell-based
- CONDITION DESCRIPTION: human, 48 h, 10 µM, compound concentration 10 uM, replicate 2

{"COMPOUND": "Cl.Cl.OCCOCCN1CCN(C(c2ccccc2)c2ccc(Cl)cc2)CC1 (centres undefined) [HYDROXYZINE HYDROCHLORIDE]", "U": "%", "Population Normal (%)": 83}
{"COMPOUND": "CN1CCN(c2ccc(Nc3c4ccccc4nc4ccccc34)cc2)CC1.Cl.Cl.O", "U": "%", "Population Normal (%)": 94}
{"COMPOUND": "CN1CCN2c3ccccc3Cc3ccccc3C2C1.Cl (centres undefined) [MIANSERIN HYDROCHLORIDE]", "U": "%", "Population Normal (%)": 98}
{"COMPOUND": "Cc1nn(C)c2nc(NNC(=O)Nc3cc(Cl)nc(Cl)c3)cc(C(C)C)c12", "U": "%", "Population Normal (%)": 95}
{"COMPOUND": "COc1cc(OC2CCN(C(C)=O)CC2)ccc1C(=O)N1CCC(N2C(=O)OCc3ccccc32)CC1", "U": "%", "Population Normal (%)": 96}
{"COMPOUND": "COCCn1c(C)c(C)s/c1=N\\C(=O)C1C(C)(C)C1(C)C", "U": "%", "Population Normal (%)": 95}
{"COMPOUND": "Cc1cc(-c2ccc3c(c2)CC[C@H]3N2CC3(CCN(C(=O)Cc4cn5cc(C)sc5n4)CC3)C2)ncn1 [PF-5190457]", "U": "%", "Population Normal (%)": 95}
{"COMPOUND": "Nc1nc(CC(=O)Nc2ccc(CCNC[C@H](O)c3ccccc3)cc2)cs1 [MIRABEGRON]", "U": "%", "Population Normal (%)": 97}
{"COMPOUND": "CSc1nc(NC2CCCC2)c([N+](=O)[O-])c(NC2CCCC2)n1 [GS-39783]", "U": "%", "Population Normal (%)": 94}
